- TGT: Rap guanine nucleotide exchange factor 3 (Homo sapiens)
- PROTOCOL DESCRIPTION: Counterscreen qHTS for agonist of cAMP-regulated guanine nucleotide exchange factor 3 (EPAC1) (AID 1645889); note: % of control where 0% means no effect; nearly all actives have a fitted effect of over 40% in size
- TEST PARAMETERS: EPAC1 Rap1B-BODIPY-GDP exchange, fluorescence; series mostly up to 154 µM
Results filed as inconclusive are left out. The source made the active and inactive calls. Calls come from the whole dose curve; as a rule, active = well fitted activation curve with a large enough effect; inconclusive = small, poorly fitted or top-dose-only effect, or another doubt; inactive = no such curve, though single readings can be large or run the other way.
TEST READOUT: activation

Use these answered entries as a reference point.
Query `O=C(c1ccccc1)c1cccc2ccccc12` yields activation of 19% [at 30.8 µM] (inactive)

Query CCOC(=O)C1CCCCN1Cc1cccc(Oc2ccccc2)c1 (configuration not stated) yields activation of 29% [at 30.8 µM] (inactive)

Query `Cc1cc(C(C)(C)C)cc(C)c1COC(=O)c1cccnc1` yields activation of inactive

Query CCOC(=O)c1ccc2c(c1)C1C=CCC1C(C(=O)OCC)N2 (configuration not stated) yields activation of 32.7% [at 30.8 µM] (inactive)

Query `CCOCCCn1c(=N)c(S(=O)(=O)c2ccccc2)cc2c(=O)n3cc(C)ccc3nc21` yields activation of inactive

Query Cc1ccc(S(=O)(=O)NC2CC(=O)N(c3ccc4c(c3)OCCO4)C2)cc1 (configuration not stated) yields activation of 22.6% [at 30.8 µM] (inactive)

Next:
Query `COCCn1c(SCc2ccccc2F)nc2ccccc2c1=O` yields activation of 12.3% [at 30.8 µM] (inactive)

Query Cc1ccc(OCC(=O)OC(C)CN(C)Cc2ccccc2)cc1 (configuration not stated) yields activation of 10.6% [at 30.8 µM] (inactive)

Query `CCOc1cc(/C=C2\SC(=S)N(NS(=O)(=O)c3ccc(C)cc3)C2=O)ccc1O` yields activation of inactive

Query `CCCC[C@H]1COCCS(=O)(=O)N1Cc1ccc(Br)cc1` yields activation of inactive

Query `Fc1cc(F)cc(-c2c(-c3ccccc3)ncc3ccc(F)cc23)c1` yields activation of inactive

Query COC(=O)C1CCN(c2nc3ccccc3nc2C(C#N)C(=O)NCCc2ccccc2)CC1 (configuration not stated) yields activation of inactive

Query `Cc1csc2nc(CNS(=O)(=O)c3ccc4c(c3)CCCC4)cn12` yields activation of -8.72% [at 30.8 µM] (inactive)

* * *

- PROTOCOL DESCRIPTION: Cell Viability - Mesenchymal (AID 546);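 note: cells exposed to compound for 40 hours before reading; 0% = DMSO only and -100% = 100 µM tamoxifen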
- TEST PARAMETERS: mesenchymal cells viability, qHTS; at 91.7 µM (top of the series)
Records with an inconclusive call do not appear.
TEST READOUT: activity change, negative = cytotoxicity (%)
API: value field is a number in %; no unit string.

Query `Nc1ccc(Cl)cc1Cl` yields activity change, negative = cytotoxicity of 2.81

* * *

- TGT: Rap guanine nucleotide exchange factor 3 (Homo sapiens)
- PROTOCOL DESCRIPTION: Counterscreen qHTS for antagonist of cAMP-regulated guanine nucleotide exchange factor 3 (EPAC1) (AID 1645888);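 note: fluorescence loss as bound BODIPY-GDP is released from Rap1B; % of control where 0% means no effect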
- TEST PARAMETERS: Rap1B-BODIPY-GDP nucleotide exchange, fluorescence; series mostly up to 154 µM
Inconclusive results are not listed. Active and inactive are the calls of the source. Calls follow the shape of the dose curve; as a rule, active = well fitted inhibition curve with a large enough effect; inconclusive = small, poorly fitted or top-dose-only effect; inactive = no such curve, though single readings can be large or run the other way.
TEST READOUT: activity change, negative = inhibition

Use these answered entries as a reference point.
Given the compound `Oc1ccc(NCc2ccccc2OCc2ccccc2F)cc1` and test system Rap guanine nucleotide exchange factor 3 (Homo sapiens), the measured activity change, negative = inhibition is inactive

Given the compound `Nc1ccc(C(=O)N2CCN(S(=O)(=O)c3ccc(Cl)s3)CC2)cc1[N+](=O)[O-]` and test system Rap guanine nucleotide exchange factor 3 (Homo sapiens), the measured activity change, negative = inhibition is inactive

Given the compound `N#C/C(=C/c1ccc(-c2ccc(S(N)(=O)=O)cc2)o1)c1nc2ccccc2s1` and test system Rap guanine nucleotide exchange factor 3 (Homo sapiens), the measured activity change, negative = inhibition is 5.29% [at 30.8 µM] (inactive)

Given the compound `O=C1NC(=O)C(=Cc2ccccc2[N+](=O)[O-])S1` and test system Rap guanine nucleotide exchange factor 3 (Homo sapiens), the measured activity change, negative = inhibition is 0.254% [at 30.8 µM] (inactive)

Given the compound CC(C)OC(=O)C(C#N)c1nc2ccccc2nc1N1CCCC1 (stereo unspecified) and test system Rap guanine nucleotide exchange factor 3 (Homo sapiens), the measured activity change, negative = inhibition is -19.9% [at 30.8 µM] (inactive)

Given the compound `O=S(=O)(NCC1(N2CCOCC2)CCCCC1)c1ccc(Cl)cc1C(F)(F)F` and test system Rap guanine nucleotide exchange factor 3 (Homo sapiens), the measured activity change, negative = inhibition is inactive

Given the compound N#CC1=C2N=C(N)c3c(sc4c3CCCCC4)N2C2=C(C(=O)CCC2)C1c1ccccc1 (stereo unspecified) and test system Rap guanine nucleotide exchange factor 3 (Homo sapiens), the measured activity change, negative = inhibition is inactive

Given the compound `COC(=O)c1ccc2nc(C3CCCCC3)c(Cc3ccccc3C(F)(F)F)n2c1` and test system Rap guanine nucleotide exchange factor 3 (Homo sapiens), the measured activity change, negative = inhibition is inactive

Next:
Given the compound `Cc1ccc(SCc2nnc(N)s2)cc1` and test system Rap guanine nucleotide exchange factor 3 (Homo sapiens), the measured activity change, negative = inhibition is 3.94% [at 30.8 µM] (inactive)

Given the compound `COc1cc(NC(=O)c2ccccc2NS(=O)(=O)c2ccc(Cl)s2)cc(OC)c1` and test system Rap guanine nucleotide exchange factor 3 (Homo sapiens), the measured activity change, negative = inhibition is inactive

Given the compound `CC(C)N1CCc2c(sc(NC(=O)c3ccc(S(=O)(=O)N4CCc5ccccc54)cc3)c2C(N)=O)C1` and test system Rap guanine nucleotide exchange factor 3 (Homo sapiens), the measured activity change, negative = inhibition is inactive

Given the compound `Cc1ccc(/C=N/N2CCN(Cc3cccc4ccccc34)CC2)o1` and test system Rap guanine nucleotide exchange factor 3 (Homo sapiens), the measured activity change, negative = inhibition is inactive
